# Test system: HL-60
# ASSAY_METHOD_TEXT: NCI tumour cell line growth inhibition, 48 h
The source made the active and inactive calls. No stated cut-off is given here; in the data, active = GI50 up to about 1.1 µM and inactive = higher.
The reply should be one of these categories: True (active), False (inactive)

Query string: Outcome logged for CC(=O)OCCOCNC(=S)N/N=C/c1ccc2ccccc2n1 in this assay:
Result string: False

Query string: Outcome logged for CC(=O)OCC1(CNc2nc(N)ncc2C#N)CC(CCc2ccccc2)C1 (configuration not stated) in this assay:
Result string: False

Query string: Outcome logged for Cc1ccccc1NC(=O)CSc1nnc(-c2ccc(/N=C\c3ccc(Cl)cc3)cc2)o1 in this assay:
Result string: False

Query string: Outcome logged for COc1ccc(OC)c(NCC#N)c1 in this assay:
Result string: False

Query string: Outcome logged for COc1cc(Nc2cnc3cc(F)c(F)cc3n2)cc(OC)c1OC in this assay:
Result string: False

Query string: Outcome logged for O=C1N/C(=N/N=C/C(O)C(O)C(O)CO)N/C1=C\c1ccco1 (configuration not stated) in this assay:
Result string: False

Query string: Outcome logged for COC(=O)/C([Se]c1c(C)cc(C)cc1C)=C(/[Se]c1c(C)cc(C)cc1C)C(=O)OC in this assay:
Result string: False

Query string: Outcome logged for C[C@@H]1[C@@H](C)C(c2ccccc2)O[Si]1(C(C)(C)C)C(C)(C)C (some centres not stated) in this assay:
Result string: False

Query string: Outcome logged for Cc1cccc(C)c1NC(=O)CCC(=O)NC(N)=S in this assay:
Result string: False

Query string: Outcome logged for Cc1ccc(C)c(C2NC(=O)c3ccccc3N2)c1 (configuration not stated) in this assay:
Result string: True

Query string: Outcome logged for COc1ccc(-c2c(C#N)c(N)n(C3OCC(O)C(O)C3O)c(=S)c2C#N)cc1 (configuration not stated) in this assay:
Result string: False

Query string: Outcome logged for CSc1ccc(OCC2OC2O)cc1 (configuration not stated) in this assay:
Result string: False

====

# System: NCI/ADR-RES
# ASSAY_METHOD_TEXT: NCI tumour cell line growth inhibition, 48 h
Calls of active or inactive are those of the source. No stated cut-off is given here; in the data, active = GI50 up to about 1.1 µM and inactive = higher.
Kindly supply the reported GI50 values for the records listed here.

Form field GI50 for item Cc1cc(S(=O)(=O)Nc2nc3ccccc3nc2-c2cccc([N+](=O)[O-])c2)c(S)cc1Cl on NCI/ADR-RES: 19.9 µM (inactive)

Form field GI50 for item COc1cc2c(cc1OC)C(Cc1ccccc1CCCl)=NCC2 on NCI/ADR-RES: 25.8 µM (inactive)

Form field GI50 for item O=C1N/C(=N/N=C/C(O)C(O)C(O)CO)N/C1=C\c1ccco1 (stereo unspecified) on NCI/ADR-RES: > 100 µM (inactive)

Form field GI50 for item C/C(=N\c1cc(Cl)cc(Cl)c1)c1ccncc1 on NCI/ADR-RES: > 100 µM (inactive)

Form field GI50 for item O=C1CC2OCC=C3CN4CCC5(C(=O)O)C(N1)C2C3CC45 (stereo unspecified) on NCI/ADR-RES: > 100 µM (inactive)

Form field GI50 for item COc1ccc(OC)c2c(C(C)=O)cccc12 on NCI/ADR-RES: > 100 µM (inactive)

====

Kindly supply the reported GI50 values for the records listed here.
# Test system: SW-620
# ASSAY_METHOD_TEXT: NCI tumour cell line growth inhibition, 48 h
The source made the active and inactive calls. No stated cut-off is given here; in the data, active = GI50 up to about 1.1 µM and inactive = higher.

// field: GI50; key: Cc1ccc(Oc2ccccc2N)cc1 ; value = 45.9 µM (inactive)

// field: GI50; key: Nc1nc(N)c2ncn(Cc3ccccc3CO)c2n1 ; value = > 100 µM (inactive)

// field: GI50; key: Cc1ccccc1NC(=O)CSc1nnc(-c2ccc(/N=C\c3ccc(Cl)cc3)cc2)o1 ; value = > 100 µM (inactive)

// field: GI50; key: Cc1cc(OCc2nn(CN3CCN(C)CC3)c(=S)n2/N=C/c2ccc(-c3ccc(Cl)cc3Cl)o2)ccc1Cl ; value = 15.7 µM (inactive)

// field: GI50; key: COc1cc2c(cc1OC)C(Cl)C(c1ccc(Cl)cc1)=C2Cl (stereo unspecified) ; value = 18.7 µM (inactive)

// field: GI50; key: O=C1N/C(=N/N=C/C(O)C(O)C(O)CO)N/C1=C\c1ccco1 (stereo unspecified) ; value = > 100 µM (inactive)

// field: GI50; key: C=C1CCc2occ(C)c2C2C1C1=C(CC(C)C1=O)C1OC12C (stereo unspecified) ; value = > 100 µM (inactive)

// field: GI50; key: Oc1ccc(SCc2cc(O)ccc2O)cc1 ; value = 19.1 µM (inactive)

// field: GI50; key: COc1ccc(C(SCCO)(c2ccc(OC)cc2)c2ccc(OC)cc2)cc1 ; value = 15 µM (inactive)

// field: GI50; key: COc1c2occc2c(N)c2ccc(=O)oc12 ; value = > 100 µM (inactive)

// field: GI50; key: COC(=O)c1ccc(C)cc1/C=C1\Cc2ccc(C)cc2C1=O ; value = 19.5 µM (inactive)

// field: GI50; key: COc1cc(OC)c(/C=N/N=C(\N)NO)c(OC)c1 ; value = > 100 µM (inactive)

// field: GI50; key: C#CCOCC12C=CC(O1)C1C(=O)N(C)C(=O)C12 (stereo unspecified) ; value = > 100 µM (inactive)

// field: GI50; key: Ic1cc2c(cc1C1SCCCS1)OCO2 ; value = > 100 µM (inactive)

// field: GI50; key: Cn1c(=O)c2nc(-c3ccc(Cl)cc3)oc2n(C)c1=O ; value = > 100 µM (inactive)

// field: GI50; key: Cn1c(=O)n2c(-c3ccccc3)c(-c3ccccc3)n2c1=O ; value = > 100 µM (inactive)

// field: GI50; key: O=[N+]([O-])c1cccc(-c2cn3c(n2)Cc2ccccc2C3)c1 ; value = > 100 µM (inactive)

// field: GI50; key: O=[N+]([O-])c1cccc(-c2nc(-c3ccccc3)c(-c3ccccc3)[nH]2)c1 ; value = > 100 µM (inactive)

// field: GI50; key: Cc1nc(Nc2ccccc2)sc1C(=O)NNC(N)=O ; value = > 100 µM (inactive)

// field: GI50; key: Cc1ccc(CCCCCOc2ccc(C3=NCCO3)cc2)s1 ; value = > 100 µM (inactive)

// field: GI50; key: COc1cccc2nc3ccccc3nc12 ; value = 45.8 µM (inactive)

// field: GI50; key: CCOC(=O)/C(=C/c1ccc(OC)c(OC)c1)C(=O)c1ccccc1 ; value = 19.4 µM (inactive)

// field: GI50; key: CN1CCN(C(=S)N(C(=O)c2cccs2)c2ccccc2)CC1 ; value = > 100 µM (inactive)

// field: GI50; key: C[n+]1ccn2c3nc4ccccc4nc3c([O-])c(C#N)c21 ; value = > 100 µM (inactive)

// field: GI50; key: CCOC(=O)COc1cc(-c2ccccc2F)nc2cc3c(cc12)OCO3 ; value = > 100 µM (inactive)

// field: GI50; key: CCC12C=CCN3CC[C@]4(C(=C(C(=O)OC)[C@@H]1Nc1ncnc5c1ncn5C1OC(COC(C)=O)C(OC(C)=O)C1OC(C)=O)Nc1ccccc14)C32 (stereo partly specified) ; value = 2.45 µM (inactive)

// field: GI50; key: O=S(=O)(Nc1nc2ccccc2nc1Nc1ccc2ccccc2c1)c1ccccc1 ; value = 7.38 µM (inactive)

// field: GI50; key: CC1=C(C(=O)Nc2ccccc2)C2(CCCCC2)C(C#N)=C(SCC(=O)Nc2ccc(Br)cc2)N1 ; value = 5.43 µM (inactive)

// field: GI50; key: C#CCCCCC#CC1CCCC1C1=CC(=O)c2ccccc21 (stereo unspecified) ; value = 2.28 µM (inactive)

// field: GI50; key: CCC1OC2(C)CC(C#N)(C#N)C1(C#N)C(=N)O2 (stereo unspecified) ; value = > 100 µM (inactive)

// field: GI50; key: CN(C)c1ccc(/C=C/C(=O)O)cc1 ; value = > 100 µM (inactive)

// field: GI50; key: NCCCN(CCCCN(CCCN)C(=O)OCc1ccccc1)C(=O)OCc1ccccc1 ; value = > 100 µM (inactive)

// field: GI50; key: N#C/C(=C\c1ccccc1)C(=O)Nc1nnc(-c2ccccc2)o1 ; value = 52.7 µM (inactive)

// field: GI50; key: C[NH+]1[C@@H](Cc2ccccc2)C(=O)O[B-]1(F)c1ccccc1 (stereo partly specified) ; value = > 100 µM (inactive)

// field: GI50; key: CC(=O)OCCOCNC(=S)N/N=C/c1ccc2ccccc2n1 ; value = 36.1 µM (inactive)

// field: GI50; key: Oc1ccc2ccccc2c1/N=N/c1cc(Cl)ccc1Cl ; value = 32.6 µM (inactive)
